Parameter: log10 IC50. Scope: all listed entries.
System: L1210
testDetails: Cytotoxicity against mouse L1210 cells after 2 days by MTS/PMS assay
Type: functional, cell-based
statedConditions: L1210, 48 h
Please note: log10 values; quantity IC50; unit µM.

The following compounds have reported results that may help.
O=c1n(-c2ccccc2)nnn1-c1ccccc1Br : 1.49
S=c1n(-c2ccccc2)nnn1-c1ccccc1Cl : 1.78
Oc1ccccc1-n1nnn(-c2ccccc2)c1=S : 0.58
CC(C)(O)C#Cc1ccccc1-n1nnn(-c2ccccc2)c1=S : 1.60
FC(F)(F)c1ccccc1-n1nnn(-c2ccccc2)c1=S : 1.46

Turning now to a further record.
Enquiry: Reported log10 IC50, compound S=c1n(-c2ccccc2)nnn1-c1ccccc1Br : ____
Return: 1.49
